Every entry's value here was drawn from ChEMBL document CHEMBL1149878.

molecular target: Glutamate NMDA receptor; assay: Displacement of [3H]L689560 from glycine site of rat NMDA receptor
pIC50: −log10 of the molar value.

{"columns": ["compoundSmiles", "pIC50"],
 "data": [
  ["CC/C=C1\\NC(=O)C(c2cccc(Oc3ccccc3)c2)=C1O", 6.15]
]}

###

Measured pIC50 accompanies every entry in the list below.
system: HL-60; experiment: Growth inhibition of human HL60 cells by MTT assay after 24 hrs; assay type: functional, cell-based; details: HL-60, 24 h
pIC50: −log10 of the molar value.

{"columns": ["compound", "qual", "pIC50"],
 "data": [
  ["C/C=C/CCCC(C)/C(O)=C1\\C(=O)[C@H]([C@H](C)O)N(C)C1=O (some centres undefined)", "<", 4.00],
  ["CCCCCCC(C)/C(O)=C1\\C(=O)[C@H]([C@H](C)O)N(C)C1=O (some centres undefined)", "=", 6.12],
  ["C/C=C1/C(=O)/C(=C(/O)C(C)CCCCCC)C(=O)N1C (centres undefined)", "=", 5.49],
  ["C/C=C/CCCC(C)/C(O)=C1\\C(=O)[C@@H]([C@@H](C)O)N(C)C1=O (some centres undefined)", "<", 4.00]
]}

###

assay: Toxicity in rat; assay type: organism-based; conditions: in vivo, read-out: LC50 (the source's name)

{"columns": ["compoundSmiles", "LD50"],
 "data": [
  ["CC(=O)C1=C(O)[C@@H]2[C@H]3c4c[nH]c5cccc(c45)C[C@H]3C(C)(C)N2C1=O", "30 mg/kg"]
]}
